# pIC50 listing for each entry below
system: HIV-1; test: antiviral assay (IC50); format: cell-based; conditions: Table 4; read-out: IC50
pIC50: −log10 of the molar value.

molecule	pIC50
COc1ccc2c(c1)OCCCCC=CCC(C)CN(CC(O)C(Cc1ccccc1)NC(=O)OC1COC3OCCC13)S2(=O)=O (stereo not drawn) [Compound 21b]	> 8.00
C=CCCCCOc1cc(OC)ccc1S(=O)(=O)N(CC(C)CC=C)C[C@@H](O)[C@H](Cc1ccccc1)NC(=O)O[C@H]1CO[C@H]2OCC[C@H]21 (single isomer, unassigned) [Compound 19c]	< 6.00
COc1ccc2c(c1)OCCCCC=CCC(C)CN(CC(O)C(Cc1ccccc1)NC(=O)OC1COC3OCCC13)S2(=O)=O (stereo not drawn) [Compound 20b]	> 7.00

====

As shown below, each of these molecules has a reported EC50 (μM), HIV-1MDR/C (SI) value.
system: HIV-1MDR/C; format: cell-based; conditions: PHA-PBMCs, p24 Gag
property name: EC50 (μM), HIV-1MDR/C (SI) (µM)

molecule	unit label	relation operator	quantitative result
CC(C)(C)NC(=O)[C@@H]1C[C@@H]2CCCC[C@@H]2CN1C[C@@H](O)[C@H](Cc1ccccc1)NC(=O)[C@H](CC(N)=O)NC(=O)c1ccc2ccccc2n1 [SQV, Saquinavir]	µM	=	0.032
CC(C)(C)NC(=O)[C@@H]1CN(Cc2cccnc2)CCN1C[C@@H](O)C[C@@H](Cc1ccccc1)C(=O)N[C@H]1c2ccccc2C[C@H]1O [IDV, Indinavir]	µM	>	1
COc1ccc2c(c1)OCCCC=CCCCCN(CC(O)C(Cc1ccccc1)NC(=O)OC1COC3OCCC13)S2(=O)=O (stereo not drawn) [Compound 14b]	µM	=	0.029

====

system: HIV-1AZV5μM; assay: microbe, parasite or virus in culture; assay type: cell-based; conditions: compared to wild-type HIV-1NL4-3
property name: n-fold change in EC50, HIV-1AZV5 μM

compound	result
Cc1cccc(C)c1OCC(=O)N[C@@H](Cc1ccccc1)[C@@H](O)C[C@H](Cc1ccccc1)NC(=O)[C@H](C(C)C)N1CCCNC1=O [LPV, lopinavir]	> 22
COc1ccc2c(c1)OCCCC=CCCCCN(CC(O)C(Cc1ccccc1)NC(=O)OC1COC3OCCC13)S2(=O)=O (centres unmarked) [Compound 14b]	(3)
CC(C)(C)NC(=O)[C@@H]1C[C@@H]2CCCC[C@@H]2CN1C[C@@H](O)[C@H](Cc1ccccc1)NC(=O)[C@H](CC(N)=O)NC(=O)c1ccc2ccccc2n1 [SQV, Saquinavir]	(6)
COC(=O)N[C@H](C(=O)N[C@@H](Cc1ccccc1)[C@@H](O)CN(Cc1ccc(-c2ccccn2)cc1)NC(=O)[C@@H](NC(=O)OC)C(C)(C)C)C(C)(C)C [AZV, Atazanavir]	> 250
CCC[C@@]1(CCc2ccccc2)CC(O)=C([C@H](CC)c2cccc(NS(=O)(=O)c3ccc(C(F)(F)F)cn3)c2)C(=O)O1 [TPV, Tipranavir]	(1)

====

system: MT-2 cells; assay: cytotoxicity CC50; assay type: cell-based, Human; conditions: MT-2 cells
property name: CC50 (µM)

molecule	assay system	property name	quantitative result
CCC[C@@]1(CCc2ccccc2)CC(O)=C([C@H](CC)c2cccc(NS(=O)(=O)c3ccc(C(F)(F)F)cn3)c2)C(=O)O1 [TPV, Tipranavir]	MT-2 cells	CC50	54.1

====

system: HIV-1LAI; experiment: drug susceptibility, MT-2 cells, MTT assay, HIV-1LAI; format: cell-based; conditions: ratio of CC50 to EC50 against HIV-1LAI

molecule	Selectivity Index
COc1ccc2c(c1)OCCCC=CCCCCN(CC(O)C(Cc1ccccc1)NC(=O)OC1COC3OCCC13)S2(=O)=O (stereo not shown) [Compound 14b]	8,280
Cc1cccc(C)c1OCC(=O)N[C@@H](Cc1ccccc1)[C@@H](O)C[C@H](Cc1ccccc1)NC(=O)[C@H](C(C)C)N1CCCNC1=O [LPV, lopinavir]	>2,560
CCC[C@@]1(CCc2ccccc2)CC(O)=C([C@H](CC)c2cccc(NS(=O)(=O)c3ccc(C(F)(F)F)cn3)c2)C(=O)O1 [TPV, Tipranavir]	320
COc1ccc2c(c1)OCC=CCCCCN(CC(O)C(Cc1ccccc1)NC(=O)OC1COC3OCCC13)S2(=O)=O (stereo not shown) [Compound 14d]	3,200

====

molecular target: HIV-1 protease (Human immunodeficiency virus type 1 group M subtype B, UniProt P04585); construct: A simple, continuous fluorometric assay for HIV protease; assay: HIV protease enzyme inhibition, fluorometric assay of Toth and Marshall; format: biochemical; conditions: Table 5; read-out: Ki
pKi: −log10 of the molar value.

compound	pKi
C=CCN1CCCC1CN(C[C@@H](O)[C@H](Cc1ccccc1)NC(=O)O[C@H]1CO[C@H]2OCC[C@H]21)S(=O)(=O)c1ccc(OC)cc1 (stereo partly drawn) [Compound 0649A]	> 8.00
C=CCOc1cc(OC)ccc1S(=O)(=O)N(CC1CCCN1CC=C)C[C@@H](O)[C@H](Cc1ccccc1)NC(=O)O[C@H]1CO[C@H]2OCC[C@H]21 (stereo partly drawn) [Compound 0659A]	< 7.00
COc1ccc2c(c1)OCC/C=C/CN1CCC[C@H]1CN(C[C@@H](O)[C@H](Cc1ccccc1)NC(=O)O[C@H]1CO[C@H]3OCC[C@H]31)S2(=O)=O [Compound 00810A]	< 7.00
COc1ccc2c(c1)OCC/C=C\CN1C(=O)CC[C@@H]1CN(C[C@@H](O)[C@H](Cc1ccccc1)NC(=O)OC(C)(C)C)S2(=O)=O [Compound 01010A]	< 7.00
COc1ccc2c(c1)OCCCCCN1C(=O)CC[C@@H]1CN(C[C@@H](O)[C@H](Cc1ccccc1)NC(=O)O[C@H]1CO[C@H]3OCC[C@H]31)S2(=O)=O [Compound 02210A]	> 9.00
COc1ccc2c(c1)OCC/C=C/CN1C(=O)CC[C@@H]1CN(C[C@@H](O)[C@H](Cc1ccccc1)NC(=O)O[C@H]1CO[C@H]3OCC[C@H]31)S2(=O)=O [Compound 01210A]	> 9.00
C=CCN1C(=O)CC[C@@H]1CN(C[C@@H](O)[C@H](Cc1ccccc1)NC(=O)O[C@H]1CO[C@H]2OCC[C@H]21)S(=O)(=O)c1ccc(OC)cc1 [Compound 01110A]	> 9.00
COc1ccc2c(c1)OCC/C=C\CN1C(=O)CC[C@@H]1CN(C[C@@H](O)[C@H](Cc1ccccc1)NC(=O)O[C@H]1CO[C@H]3OCC[C@H]31)S2(=O)=O [Compound 01310A]	> 7.00
COc1ccc2c(c1)OCC/C=C/CN1C(=O)CC[C@@H]1CN(C[C@@H](O)[C@H](Cc1ccccc1)NC(=O)OC(C)(C)C)S2(=O)=O [Compound 00910A]	< 7.00
COc1ccc2c(c1)OCCCCCN1C(=O)CC[C@H]1CN(C[C@@H](O)[C@H](Cc1ccccc1)NC(=O)O[C@H]1CO[C@H]3OCC[C@H]31)S2(=O)=O [Compound 02110A]	> 7.00
COc1ccc2c(c1)OCCCCCN1CCC[C@@H]1CN(C[C@@H](O)[C@H](Cc1ccccc1)NC(=O)O[C@H]1CO[C@H]3OCC[C@H]31)S2(=O)=O [Compound 00610A]	< 7.00
COc1ccc2c(c1)OCCC=CCN1C(=O)CC[C@H]1CN(C[C@@H](O)[C@H](Cc1ccccc1)NC(=O)O[C@H]1CO[C@H]3OCC[C@H]31)S2(=O)=O [Compound 01410A]	< 7.00

====

tested on: HIV-2ROD; assay: drug susceptibility, MT-2 cells, MTT assay, HIV-2ROD; type: cell-based; settings: Human immunodeficiency virus 2, MT2; MT-2 cells, MTT assay, mean ± 1 SD; read-out: EC50 (μM) for HIV-2ROD

compound	unit label	EC50
CC(C)CN(C[C@@H](O)[C@H](Cc1ccccc1)NC(=O)O[C@H]1CCOC1)S(=O)(=O)c1ccc(N)cc1 [APV, Amprenavir]	µM	0.42
Cc1cccc(C)c1OCC(=O)N[C@@H](Cc1ccccc1)[C@@H](O)C[C@H](Cc1ccccc1)NC(=O)[C@H](C(C)C)N1CCCNC1=O [LPV, lopinavir]	µM	0.028

====

test system: HIV-1216-P50; experiment: microbe, parasite or virus in culture; type: cell-based, HIV-1; settings: Human immunodeficiency virus 1, MT4, read-out: EC50 (μM), HIV-1216-p50
Collected EC50 values appear next to each entry.

compound	EC50
Cc1c(O)cccc1C(=O)N[C@@H](CSc1ccccc1)[C@H](O)CN1C[C@H]2CCCC[C@H]2C[C@H]1C(=O)NC(C)(C)C	0.13 µM
COc1ccc2c(c1)OCCCC=CCCCCN(CC(O)C(Cc1ccccc1)NC(=O)OC1COC3OCCC13)S2(=O)=O (centres unmarked) [Compound 14b]	0.19 µM
COc1ccc2c(c1)OCCC=CCCCCN(CC(O)C(Cc1ccccc1)NC(=O)OC1COC3OCCC13)S2(=O)=O (centres unmarked) [Compound 14c]	0.094 µM
COC(=O)N[C@H](C(=O)N[C@@H](Cc1ccccc1)[C@@H](O)CN(Cc1ccc(-c2ccccn2)cc1)NC(=O)[C@@H](NC(=O)OC)C(C)(C)C)C(C)(C)C	0.014 µM
CC(C)CN(C[C@@H](O)[C@H](Cc1ccccc1)NC(=O)O[C@H]1CCOC1)S(=O)(=O)c1ccc(N)cc1	0.26 µM
Cc1cccc(C)c1OCC(=O)N[C@@H](Cc1ccccc1)[C@@H](O)C[C@H](Cc1ccccc1)NC(=O)[C@H](C(C)C)N1CCCNC1=O	0.19 µM
CCC[C@@]1(CCc2ccccc2)CC(O)=C([C@H](CC)c2cccc(NS(=O)(=O)c3ccc(C(F)(F)F)cn3)c2)C(=O)O1	0.029 µM
COc1ccc2c(c1)OCC=CCCCCN(CC(O)C(Cc1ccccc1)NC(=O)OC1COC3OCCC13)S2(=O)=O (centres unmarked) [Compound 14d]	0.24 µM
